B1: CPEB3 Ribozyme (parent)
chain: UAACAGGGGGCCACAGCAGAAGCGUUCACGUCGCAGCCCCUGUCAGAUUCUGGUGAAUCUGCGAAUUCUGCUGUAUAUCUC

# Variants of: B1
# method.description: self-cleavage, relative activity (ratio to wild type); higher = more cleavage; in vitro, sequencing
Recorded self-cleavage by entry
Output: the number by itself.

Input A35G U67G . Output self-cleavage: 1.11

Input C68A U74A . Output self-cleavage: 0.52
